- Subject Of Test: T1, flag-tagged soluble TL3 (amino acids 105-251 of SEQ ID NO:234) (Homo sapiens (Human), UniProt O75888 105-250)
- T1 construct: Heterologous flag-tagged control protein, immobilized in the ELISA; also called flagged tagged TL-3; not shown: Flag tag
- T1 sequence: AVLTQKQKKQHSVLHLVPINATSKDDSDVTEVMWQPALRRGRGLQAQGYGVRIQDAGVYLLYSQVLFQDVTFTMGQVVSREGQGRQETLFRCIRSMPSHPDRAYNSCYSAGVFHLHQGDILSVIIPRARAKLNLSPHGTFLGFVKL
- Test Name: phage ELISA on immobilized flag-tagged soluble TL3
- Experimental: The individual phage isolates in the panel of phage, each phage expressing a unique scFv that bound to flag-tagged GMAD, were tested to ensure specificity for GMAD using an ELISA assay. […]
Measurement Label: binding result

>  <Binder>
GMBC696 (scFv) scFv: EVQLVQSRAEVKKPGASVKVSCKTSGYTFNGYYIHWVRQAPGQGLEWMGWIDPINSVTNYAQNFQGRVTMTRDTSINTAYMELSRLTSDDTAVYYCARARVSTILQYWGQGTLVTVSSGGGGSGGGGSGGGGSSELTQDPAVSVALGQTVRITCQGDSLRSYYASWYQQKPGQAPVLVIYGKNNRPSGIPDRFSGSSSGNTASLTITGAQAEDEADYYCNSRDSSGNHVVFGGGTKLTVLG

>  <Measurement Label>
binding result

>  <Reported>
no binding

$$$$
>  <Binder>
GMBC667 (scFv) scFv: QVQLQESGGGLVKPGGSLRLSCAGSGFPFSDAWMNWVRQAPGKGLEWVGRIKSKGSGGTIDYAAPVKDRFRISRDDSKNTLYLQMNSLNIEDTALYYCTWDWDFYYGMNVWGQGTTVTVSSGGGGSGGGGSGGGGSQSVLTQPASVSGSPGQSITISCTGTSSDVGGYNYVSWYQQHPGKAPKLMIYEGSKRPSGVSNRFSGSKSGNTASLTISGLQAEDEADYYCSSYTTRSTRVFGGGTKLTVLG

>  <Measurement Label>
binding result

>  <Reported>
no binding

$$$$
>  <Binder>
GMBC609 (scFv) scFv: QVQLVESGGGLVKPGESLRLSCEASGFEFNYAWMSWVRQAPGKGLEWVGRSRSEASGGTTDYAAPLQDRFTISRDDSKNTLYLQVNSLKIEDTGVYFCKWEKSEYYGMDVWGRGTPVTVSSGGGGSGGGGSGGGGSQSVLTQPPSVSAAPGQKVTISCSGSTSNIGNNYVSWYQQHPGKAPKLMIYDVSKRPSGVPDRFSGSKSGNSASLDISGLQSEDEADYYCAAWDDSLSEFLFGTGTKLTVLG

>  <Measurement Label>
binding result

>  <Reported>
no binding

$$$$
